Each record here notes measured %Inh.
- Test system: PKN1
- condition.context: concentration: 1 μM,replicates: in singlicate; n = 1;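 further: KINOMEscan kinase panel screen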
quantity: %Inh (%)

INSERT INTO measurements (compound, readout_number) VALUES
  ('N#Cc1cccc(C(=O)NC2CCN(c3ccnc(Nc4ccc(F)cc4)n3)C2)c1 (stereo not drawn)', 14),
  ('Cn1ccc2ncnc(Oc3ccc(NC(=O)Nc4cc(C(C)(C)C)on4)c(Cl)c3)c21', 0),
  ('O=C(Nc1ccccc1)c1cccc(Oc2ccc3nccn3n2)c1', 26),
  ('CC(C)S(=O)(=O)N1CCN(Cc2ccc3c(c2)nc(NC(=O)c2ccsc2)n3C[C@H](O)c2ccccc2)CC1', 6),
  ('Cn1ccc2ncnc(Oc3ccc(NC(=O)Nc4cccc(C(F)(F)F)c4)c(F)c3)c21', 0),
  ('CC(C(=O)NC1CCN(c2ccnc(Nc3ccc(F)cc3)n2)C1)c1ccc(Cl)cc1 (stereo not drawn)', 4);

----------
- System: STK33
- condition.context: concentration: 1 μM,replicates: in singlicate; n = 1
quantity: %Inh

INSERT INTO measurements (molecule, result) VALUES
  ('CN(c1ccccc1CNc1nc(Nc2ccc3c(c2)CC(=O)N3)ncc1C(F)(F)F)S(C)(=O)=O', '68%'),
  ('NC(=O)c1ccc(-c2cc3ncnc(SCC(=O)O)c3s2)cc1', '0%'),
  ('CCOC(=O)N1CCC(n2cnc(-c3ccc(F)cc3)c2-c2ccnc(N)n2)CC1', '0%'),
  ('CN1CCN(CCNc2nc3cc(Oc4ccc(NC(=O)Nc5cc(C(F)(F)F)ccc5F)cc4)ccc3[nH]2)CC1.Cl.Cl', '0%');

----------
The molecules listed here are annotated with their %Inh.
- Tested on: ERK3
- Construct: gene MAPK6
- condition.context: concentration: 1 μM,replicates: in singlicate; n = 1
quantity: %Inh (%)

INSERT INTO assay_data (molecule, quantity, unit_info, readout_number) VALUES
  ('Nc1nccc(-c2ccc3c(N)n[nH]c3c2)n1', '%Inh', '%', 0),
  ('O=C(Nc1n[nH]c2cc(-c3ccco3)ccc12)C1CC1', '%Inh', '%', 0),
  ('Cc1cccc2c(-c3ccncc3)c(-c3ccc(F)cc3)nn12.Cl', '%Inh', '%', 5),
  ('COc1cccc(OC)c1C(=O)Nc1cccc(-c2nn3ccccc3c2-c2ccnc(Nc3cccc(F)c3)n2)c1', '%Inh', '%', 1),
  ('O=C(Nc1ccc(Oc2ccc3nc(NC(=O)C4CC4)cn3n2)c(F)c1)c1cccn(-c2ccccc2)c1=O', '%Inh', '%', 0);

----------
- Test system: ICK
- condition.context: concentration: 1 μM,replicates: in singlicate; n = 1
Entries annotated with measured %Inh
quantity: %Inh (%)

INSERT INTO results (compound, test_system, quantity, readout_number) VALUES
  ('Cn1cc(-c2cccc3c(N)c(C(N)=O)nnc23)cn1', 'ICK', '%Inh', 24),
  ('CNC(=O)c1ccccc1Nc1nc(Nc2cccc(CS(C)(=O)=O)c2)ncc1C.O=CO [GSK1520489]', 'ICK', '%Inh', 20),
  ('Cc1ccc(CC(=O)N2CCc3cc(-c4cn(C)c5ncnc(N)c45)ccc32)cc1 [GSK2634758]', 'ICK', '%Inh', 0),
  ('Nc1nccc(-c2ccc3c(N)n[nH]c3c2)n1 [GSK1034945]', 'ICK', '%Inh', 0),
  ('C[C@@H]1CCN(C(=O)N2CCCC2)C[C@@H]1N(C)c1ncnc2[nH]ccc12', 'ICK', '%Inh', 13),
  ('Cc1ccc2c(-c3ccnc(Nc4ccc(C(F)(F)F)cc4)n3)cnn2n1 [GW819776]', 'ICK', '%Inh', 66),
  ('N#Cc1cccc(C(=O)NC2CCN(c3ccnc(Nc4ccc(F)cc4)n3)C2)c1 (centres unmarked) [GSK1379708]', 'ICK', '%Inh', 0),
  ('COc1cc2ncn(-c3cc(OCC4CCCCC4)c(C(N)=O)s3)c2cc1OC [GSK204559]', 'ICK', '%Inh', 0),
  ('CCn1c(-c2nonc2N)nc2cncc(CNC3CCNCC3)c21.Cl [SB-747651]', 'ICK', '%Inh', 16),
  ('COc1cccc(C2=C(Nc3cccc(Cl)c3)C(=O)NC2=O)c1 [SB-341556]', 'ICK', '%Inh', 33),
  ('Cn1ccc2ncnc(Oc3ccc(NC(=O)Nc4cccc(C(F)(F)F)c4)c(F)c3)c21', 'ICK', '%Inh', 0),
  ('COC(=O)c1cccc(NC(=O)NC2CCN(c3ccnc(NCc4ccc(F)cc4)n3)CC2)c1 [GSK1379860]', 'ICK', '%Inh', 0),
  ('CN1CCN(CCNc2nc3cc(Oc4ccc(NC(=O)Nc5cc(C(F)(F)F)ccc5F)cc4)ccc3[nH]2)CC1.Cl.Cl [GW768504]', 'ICK', '%Inh', 0),
  ('COc1ccc(Nc2nccc(N3CCC(NC(=O)c4cccc(C#N)c4)C3)n2)cc1 (centres unmarked) [GSK1379730]', 'ICK', '%Inh', 0),
  ('Cn1ccc2ncnc(Oc3ccc(NC(=O)Nc4cccc(C(F)(F)F)c4)c(Cl)c3)c21', 'ICK', '%Inh', 0),
  ('CS(=O)(=O)Nc1ccc(-c2ccnc3[nH]ccc23)cc1 [GSK993273]', 'ICK', '%Inh', 6),
  ('O=c1[nH]cc(-c2ccc(O)cc2)c2sc(-c3ccncc3)cc12 [GSK1033723]', 'ICK', '%Inh', 0),
  ('Cc1nnc(-c2ccc3occ(-c4ccc(S(C)=O)cc4)c3n2)o1 (centres unmarked)', 'ICK', '%Inh', 0),
  ('O=C(Nc1cccc(C(F)(F)F)c1)c1cccc(Oc2ccc3nccn3n2)c1', 'ICK', '%Inh', 31),
  ('Cc1cccc(-c2nc(Nc3ccncc3)c3sccc3n2)n1 [GW869641]', 'ICK', '%Inh', 32),
  ('CN(c1ccc2c(c1)nc(NCc1ccc(F)cc1)n2C)c1ccnc(Nc2ccc(CS(C)(=O)=O)cc2)n1.Cl [GW813244]', 'ICK', '%Inh', 7),
  ('COC(=O)Nc1nc2cc(Oc3ccc(NC(=O)Nc4cc(C(F)(F)F)ccc4Cl)cc3)ccc2[nH]1.Cl [GW697465]', 'ICK', '%Inh', 0),
  ('Cc1ccc(Nc2ccnc(Nc3ccc4c(c3)CS(=O)(=O)C4)n2)cc1O.Cl [GW579362]', 'ICK', '%Inh', 28);

----------
- Test system: LIMK1
- condition.context: concentration: 1 μM,replicates: in singlicate; n = 1
Decision: %Inh compared against 1%; not below it gives met, below it gives not met.

INSERT INTO measurements (molecule, answer_label) VALUES
  ('Cc1ccc(Nc2ccnc(Nc3ccc4c(c3)CS(=O)(=O)C4)n2)cc1O.Cl', 'met'),
  ('O=C(Nc1ccc(Oc2ccc3nc(NC(=O)C4CC4)cn3n2)c(F)c1)c1cccn(-c2ccccc2)c1=O', 'met'),
  ('Nc1nccc(-c2ccc3c(N)n[nH]c3c2)n1', 'not met'),
  ('Cn1ccc2ncnc(Oc3ccc(NC(=O)Nc4ccnc(C(F)(F)F)c4)c(Cl)c3)c21', 'met'),
  ('Cn1ccc2ncnc(Oc3ccc(NC(=O)Nc4cccc(C(F)(F)F)c4)c(F)c3)c21', 'not met'),
  ('CCOC(=O)N1CCC(n2cnc(-c3ccc(F)cc3)c2-c2ccnc(N)n2)CC1', 'met');

----------
// reported %Inh per item
- System: GRK1
- condition.context: concentration: 1 μM,replicates: in singlicate; n = 1
quantity: %Inh (%)

INSERT INTO measurements (molecule, unit_info, readout_number) VALUES
  ('Cn1ccc2ncnc(Oc3ccc(NC(=O)Nc4cccc(C(F)(F)F)c4)c(F)c3)c21', '%', 15),
  ('CCNCC(Cc1ccccc1)NC(=O)c1cc(Br)c(-c2ccnc3[nH]ccc23)s1.Cl.Cl (centres unmarked)', '%', 89),
  ('c1ccc(Oc2ccc(Nc3ccnc4ccc(-c5ccccn5)cc34)cc2)cc1', '%', 0),
  ('CNC(=O)c1ccccc1Nc1nc(Nc2cccc(CS(C)(=O)=O)c2)ncc1C.O=CO', '%', 8),
  ('Cc1ccc(CC(=O)N2CCc3cc(-c4cn(C)c5ncnc(N)c45)ccc32)cc1', '%', 0);

----------
Entries and their %Inh values follow.
- System: DMPK
- condition.context: concentration: 1 μM,replicates: in singlicate; n = 1
quantity: %Inh

INSERT INTO results (compound, result) VALUES
  ('COc1cc2ncn(-c3cc(OCC4CCCCC4)c(C(N)=O)s3)c2cc1OC', '0%'),
  ('CN(c1cccc(CNc2nc(Nc3ccc4c(c3)CC(=O)N4)ncc2C(F)(F)F)c1)S(C)(=O)=O', '0%'),
  ('C[C@@H](Oc1cc(-n2cnc3cc(-c4ccncc4)ccc32)sc1C(N)=O)c1ccccc1Cl', '0%'),
  ('Cc1ccc2c(-c3ccnc(Nc4ccc(C(F)(F)F)cc4)n3)cnn2n1', '0%'),
  ('Cc1cccc2c(-c3ccncc3)c(-c3ccc(F)cc3)nn12.Cl', '0%'),
  ('O=C(NOCC1CC1)c1cc(Br)c(F)c(F)c1Nc1ccc(I)cc1Cl', '0%'),
  ('COC(=O)c1cccc(NC(=O)NC2CCN(c3ccnc(Nc4cc(OC)c(OC)c(OC)c4)n3)C2)c1 (centres unmarked)', '0%'),
  ('OCCn1cc(-c2cnc3nnn(Cc4ccc5ncccc5c4)c3n2)cn1', '0%'),
  ('NC(=O)c1ccc(-c2cc3ncnc(SCC(=O)O)c3s2)cc1', '0%'),
  ('Cn1ccc2ncnc(Oc3ccc(NC(=O)Nc4cnn(C(C)(C)C)c4)c(Cl)c3)c21', '15%'),
  ('O=C(Nc1cccc(C(F)(F)F)c1)c1cccc(Oc2ccc3nccn3n2)c1', '13%'),
  ('CN(c1ccccc1CNc1nc(Nc2ccc3c(c2)CC(=O)N3)ncc1C(F)(F)F)S(C)(=O)=O', '25%'),
  ('O=C(Nc1ccccc1)c1cccc(Oc2ccc3nccn3n2)c1', '11%'),
  ('COC(=O)c1cccc(NC(=O)NC2CCN(c3ccnc(NCc4ccc(F)cc4)n3)CC2)c1', '0%'),
  ('CS(=O)c1ccc(-c2coc3ccc(-c4n[nH]c(=O)o4)cc23)cc1 (centres unmarked)', '29%'),
  ('N#Cc1cccc(C(=O)NC2CCN(c3ccnc(Nc4ccc(F)cc4)n3)C2)c1 (centres unmarked)', '0%'),
  ('Cc1ccn2nc(-c3ccc(F)cc3)c(-c3ccncc3)c2c1.Cl', '0%'),
  ('Cn1ccc2ncnc(Oc3ccc(NC(=O)Nc4cc(C(C)(C)C)on4)c(Cl)c3)c21', '0%'),
  ('O=C(Nc1n[nH]c2cc(-c3ccco3)ccc12)C1CC1', '0%'),
  ('Cn1ccc2ncnc(Oc3ccc(NC(=O)Nc4ccnc(C(F)(F)F)c4)c(Cl)c3)c21', '0%');
